Data origin, for the record: patent US10414778B2

# System: MCF-7 cells
# method.notes: MTT in vitro growth inhibition assay, MCF-7
# Format: cell-based, human
# experimental.context: Homo sapiens, MCF7, Table 4, 48-hour treatment, mean and standard deviation, two independent experiments, read-out: MCF-7 Cell Viability GI50
# Experimental: Human cancer cell lines were obtained from the American Type Culture Collection (ATCC, Manassas, Va., USA), the European Collection of Cell Culture (ECACC, Salisbury, UK), and the Deutsche Sammlung von Mikroorganismen und Zellkulturen (DSMZ, Braunschweig, Germany). […] The values in TABLE 4 are the mean and standard deviation calculated from two independent experiments, which were performed in 4 replicates.
# GI50 annotations
reported.property: GI50 (µM)

>>> value("O=C1C=C[C@]23CC[N@](Cc4cccc(OCc5ccccc5)c42)[C@H]3C1 [Compound 5i]")
11
>>> value("COc1cc2c(cc1OCc1ccccc1)C[N@@]1CC[C@@]23C=CC(=O)C[C@H]13 [Compound 5e]")
14.5
>>> value("O=C1C=C[C@]23CC[N@](Cc4cc5c(cc42)OCCO5)[C@H]3C1 [Compound 5c]")
18.6
